Biological target: Muscarinic acetylcholine receptor M1 (Rattus norvegicus)
Sequence (P08482 whole entry): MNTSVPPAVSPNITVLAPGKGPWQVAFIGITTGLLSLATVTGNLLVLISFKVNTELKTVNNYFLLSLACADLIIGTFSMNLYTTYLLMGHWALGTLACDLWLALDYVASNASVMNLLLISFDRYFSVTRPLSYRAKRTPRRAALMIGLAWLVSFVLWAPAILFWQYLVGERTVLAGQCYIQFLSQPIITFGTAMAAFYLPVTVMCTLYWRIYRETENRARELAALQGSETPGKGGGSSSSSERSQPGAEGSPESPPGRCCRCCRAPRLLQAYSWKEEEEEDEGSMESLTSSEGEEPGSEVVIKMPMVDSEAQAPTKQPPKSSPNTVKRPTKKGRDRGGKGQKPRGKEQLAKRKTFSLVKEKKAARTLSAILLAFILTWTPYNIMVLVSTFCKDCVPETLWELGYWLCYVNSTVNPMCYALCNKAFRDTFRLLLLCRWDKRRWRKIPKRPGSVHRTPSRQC
Assay: Binding activity against muscarinic acetylcholine receptor M1 in rat brain, using [3H]OXO-M as the radioligand.
Type: tissue-based
result.type: IC50 (nM)
Give the value, in units of nM, as a plain number.

These recorded examples may help you get a feel for the data.
CCCCCOc1nccnc1C1CN2CCC1CC2 (configuration not stated); 6
CCCCCCOc1nccnc1[C@@H]1CN2CCCC1C2 (some centres not stated); 180
COc1nccnc1C1CN2CCC1CC2 (configuration not stated); 72
c1cnc(C2CN3CCC2CC3)cn1 (configuration not stated); 4
Clc1cncc(C2CN3CCC2CC3)n1 (configuration not stated); 4.6
CCCCCSc1nccnc1C1CN2CCC1CC2 (configuration not stated); 0.7

Field: next molecule
Checklist item: IC50 tested on Muscarinic acetylcholine receptor M1 (Rattus norvegicus), entry CCCCSc1nccnc1C1CN2CCC1CC2 (configuration not stated) , value?
0.5

----------
Biological target: UniProtKB P08482
Experiment: Binding activity against muscarinic acetylcholine receptor M1 in rat brain, using [3H]OXO-M as the radioligand.
Format: tissue-based
result.type: pIC50
Reminder that pIC50 is minus the log10 of a molar concentration.

Previously resolved entries follow.
CCCCCCOc1nccnc1[C@@H]1CN2CCC1CC2; 8.60
CCCCCCOc1nccnc1C1=CCCCN(C)C1; 6.93
CCCOc1nccnc1C1CN2CCC1CC2 (stereo not drawn); 8.05

Sample CCCCCCSc1nccnc1C1CN2CCC1CC2 (stereo not drawn) — what was its pIC50?
8.70

Need pIC50 of CCCCCCCOc1nccnc1C1CN2CCC1CC2 (stereo not drawn) , thanks.
8.00

Query (compound): CCCCCCOc1nccnc1[C@H]1CN2CCC1CC2 ; field requested: pIC50
7.95

Given the compound CCCCOc1nccnc1C1CN2CCC1CC2 (stereo not drawn) , what is its reported pIC50?
8.30

Name the recorded pIC50 for CCCCCCOc1nccnc1C1=CCCCNC1 .
6.78

----------
Target: Muscarinic acetylcholine receptor M1 (Rattus norvegicus, UniProt P08482)
Sequence (P08482 whole entry): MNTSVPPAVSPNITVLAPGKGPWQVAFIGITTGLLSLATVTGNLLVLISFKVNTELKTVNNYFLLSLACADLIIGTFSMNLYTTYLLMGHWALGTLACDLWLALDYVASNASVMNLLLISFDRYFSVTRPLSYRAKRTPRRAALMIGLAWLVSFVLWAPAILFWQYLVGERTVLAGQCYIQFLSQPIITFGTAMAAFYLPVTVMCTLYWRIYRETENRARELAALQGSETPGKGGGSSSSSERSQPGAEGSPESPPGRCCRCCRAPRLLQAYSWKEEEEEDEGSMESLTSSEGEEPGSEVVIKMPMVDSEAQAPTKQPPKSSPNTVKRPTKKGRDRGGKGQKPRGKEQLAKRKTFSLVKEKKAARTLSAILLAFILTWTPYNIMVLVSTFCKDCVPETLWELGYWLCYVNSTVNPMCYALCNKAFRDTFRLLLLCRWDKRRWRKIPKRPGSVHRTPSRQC
Assay: Binding activity against muscarinic acetylcholine receptor M1 in rat brain, using [3H]-Pz as the radioligand.
Format: tissue-based
We begin with a simple list: items and their reported pIC50.
Formally, pIC50 is defined as -log10 of the concentration c, with c in mol/L.

Examples with their reported pIC50 follow.
CCCCCCSc1nccnc1C1CN2CCC1CC2 (configuration not stated); 8.66
CCCCCCOc1nccnc1C1=CCCCNC1; 7.36
CCCCCCCOc1nccnc1C1CN2CCC1CC2 (configuration not stated); 7.89
CCCCSc1nccnc1C1CN2CCC1CC2 (configuration not stated); 9.40
CCCCCCOc1nccnc1C1=CCCCN(C)C1; 7.59
CCCCCOc1nccnc1C1CN2CCC1CC2 (configuration not stated); 8.15
CCCCCCOc1nccnc1C1CN2CCC1CC2 (configuration not stated); 8.22
COc1nccnc1C1CN2CCC1CC2 (configuration not stated); 6.95

Reported pIC50, molecule CCCCCSc1nccnc1C1CN2CCC1CC2 (configuration not stated) : ____
8.96

Consider the molecule CCCCCCOc1nccnc1[C@H]1CN2CCC1C2 (some centres not stated) and give its measured pIC50.
8.15

Item under review: CCCOc1nccnc1C1CN2CCC1CC2 (configuration not stated) . Reported pIC50?
7.72

Name the recorded pIC50 for Clc1cncc(C2CN3CCC2CC3)n1 (configuration not stated) .
8.33

// lookup pIC50 for CCCCCCOc1nccnc1[C@@H]1CN2CCC1C2 (some centres not stated)
7.24
